system: SW-620; test: NCI tumour cell line growth inhibition, 48 h
Active and inactive are the calls of the source. No stated cut-off is given here; in the data, active = GI50 up to about 1.1 µM and inactive = higher.
Labels: y for active, n for inactive

>>> assigned_class("COc1ccc(P2(=S)Oc3ccccc3-c3ccccc3O2)cc1")
"y"
>>> assigned_class("c1ccc2nc(CCC3CCCCN3)ccc2c1 (stereo unspecified)")
"n"
>>> assigned_class("COc1cc2cc[n+](C)c(Cc3ccc(Oc4cc(Cc5c6cc(OC)c(OC)cc6cc[n+]5C)ccc4OC)cc3)c2cc1OC")
"n"
>>> assigned_class("CN(C)CCNc1ccc([N+](=O)[O-])c2nc3ccccc3c(N)c12")
"y"
>>> assigned_class("COc1ccc(/C=C/C(C(=O)O)C(=O)O)cc1")
"n"
>>> assigned_class("O=C1C=CC2(O[C@H](c3ccccc3)[C@@H](c3ccccc3)O2)C(SC(=O)c2ccccc2)C1 (stereo partly specified)")
"y"

###

Endpoint: GI50. System: HCT-15. Items follow.
OBSERVABLE: GI50

>>> meas_value("O=[N+]([O-])C1CC/C(=N/O)c2nonc21 (stereo not drawn)")
"> 10 µM"
>>> meas_value("Nc1nc(O)c2c(ncn2CC(O)CO)n1 (stereo not drawn)")
"> 100 µM"
>>> meas_value("COC(=O)/C=C(/C)n1nc2ccccc2n1")
"> 100 µM"

###

Below is a list of entries, each paired with its recorded GI50 value.
system: HCT-116; assay: NCI tumour cell line growth inhibition, 48 h
Active and inactive are the calls of the source. No stated cut-off is given here; in the data, active = GI50 up to about 1.1 µM and inactive = higher.
OBSERVABLE: GI50

>>> meas_value("CN1CCN(CCn2c3c4ccccc4ccc3c3oc(=O)c4ccccc4c32)CC1")
"1.88 µM (inactive)"
>>> meas_value("OC1[C@H]([C@H]2CCCC[C@@H]2O)CCC[C@@H]1[C@@H]1CCCC[C@H]1O (stereo partly specified)")
"> 100 µM (inactive)"
>>> meas_value("CCCCCCOc1ccc(NC2=C(Cl)C(=O)c3cccnc3C2=O)cc1")
"0.895 µM (active)"
>>> meas_value("NC1CC(=O)c2cc(Cl)sc21 (stereo unspecified)")
"> 100 µM (inactive)"
>>> meas_value("COC(=O)CCc1cc(OC)c2oc(-c3ccc(OC)c(OC)c3)c(CO)c2c1")
"> 100 µM (inactive)"
>>> meas_value("COc1ccc(-c2oc(/C=N/c3ccccc3)c([N+](=O)[O-])c2-c2ccc(OC)c(OC)c2)cc1OC")
"> 100 µM (inactive)"
>>> meas_value("Nc1ccc2c(SCCSc3c4ccccc4nc4cc(N)ccc34)c3ccccc3nc2c1")
"57.4 µM (inactive)"
>>> meas_value("CC1=NN(c2ccccc2)C(=O)C1C(=O)C(=O)Nc1ccc(C)cc1C (stereo unspecified)")
"> 100 µM (inactive)"
>>> meas_value("c1ccc2nc(CCC3CCCCN3)ccc2c1 (stereo unspecified)")
"> 100 µM (inactive)"
>>> meas_value("COc1cc(Cc2ccc3c(c2C#N)N(C)c2ccccc2S3)cc(OC)c1OC")
"13.9 µM (inactive)"
>>> meas_value("C[C@@H](CO)OCOCc1ccccc1")
"> 100 µM (inactive)"
>>> meas_value("N#CCCOCN(CO)c1nc(N(CO)COCCC#N)nc(N(CO)COCCC#N)n1")
"25.7 µM (inactive)"
>>> meas_value("CO/N=C(/C(=O)Nc1c[n+](CC(=O)[O-])cs1)c1csc(N)n1")
"> 100 µM (inactive)"
>>> meas_value("CN(C)c1ccc(/C=C/C=C(/C#N)c2ccccc2)cc1")
"16.4 µM (inactive)"
>>> meas_value("Cc1ccc(S(=O)(=O)OC(C=O)C(O)C(O)COC(c2ccccc2)(c2ccccc2)c2ccccc2)cc1 (stereo unspecified)")
"16.4 µM (inactive)"
>>> meas_value("NNC(=O)C(=O)N/N=C1/CCCC1C(=O)CCC(=O)Nc1ccc(Cl)cc1 (stereo unspecified)")
"> 100 µM (inactive)"
>>> meas_value("Cc1ccc(/C=C/C(=N/NC(=O)N/N=C(/C=C/c2ccc(C)cc2)C(C)C)C(C)C)cc1")
"5.24 µM (inactive)"
>>> meas_value("CCn1c2ccccc2c2cc(Nc3cc(C)[nH]c(=O)n3)ccc21")
"> 100 µM (inactive)"
>>> meas_value("CO[C@@H]1C[C@H]2N3CC[C@@]2(c2cc4c(cc2C3)OCO4)[C@H]2O[C@@H]12")
"> 100 µM (inactive)"
>>> meas_value("COC(=O)C1=CCC[C@H]2[C@@]1(COC(C)=O)CC[C@@H](C)[C@]2(C)CC(=O)c1ccoc1")
"9.91 µM (inactive)"
>>> meas_value("CC1=C(C)C(=O)C(C2=C(C3=CC(=O)C(C)=C(C)C3=O)C(=O)C(C)=C(C)C2=O)=CC1=O")
"5.45 µM (inactive)"
>>> meas_value("O=c1oc2ccc3ccccc3c2cc1-c1cn2ccccc2n1")
"14.9 µM (inactive)"
>>> meas_value("c1ccc(CN2CCc3[nH]c4ccccc4c3C2)cc1")
"19.9 µM (inactive)"
>>> meas_value("CC1(C)C2CC(=O)C1(C)C(OCc1ccccc1)C2 (stereo unspecified)")
"25.1 µM (inactive)"
>>> meas_value("CCCC1c2c(ccc3ccccc23)Oc2ccc3ccccc3c21")
"20.7 µM (inactive)"
>>> meas_value("O=C(Nc1nnc(-c2ccccc2)o1)C(SC(=S)N1CCCC1)c1ccccc1 (stereo unspecified)")
"25.1 µM (inactive)"
>>> meas_value("CN1CCC(O)(OC(=O)C(c2ccccc2)C2(O)CCCC2)CC1 (stereo unspecified)")
"> 100 µM (inactive)"
>>> meas_value("CCOC(=O)/C=C(/C(=O)OCC)n1cc(C)c(=O)[nH]c1=O")
"2.43 µM (inactive)"
>>> meas_value("O=C(NCC(O)COc1ccccc1)c1ccccc1O (stereo unspecified)")
"> 100 µM (inactive)"
>>> meas_value("O=C(O)c1cc2ccccc2c(/N=N/c2ccc(S(=O)(=O)Nc3ccccn3)cc2)c1O")
"> 100 µM (inactive)"
>>> meas_value("NC(Cc1ccccc1)C(=O)O (stereo unspecified)")
"> 100 µM (inactive)"
>>> meas_value("CSCC(COC(C)=O)(CSC)c1ccncc1")
"> 100 µM (inactive)"
>>> meas_value("COc1ccc(NC(=O)CCc2cc(-c3ccc(O)c(OC)c3)nc(NC#N)n2)cc1")
"> 100 µM (inactive)"
>>> meas_value("CC(O)c1cc2c(s1)C(=O)c1scc(C(C)O)c1C2=O (stereo unspecified)")
"0.659 µM (active)"
>>> meas_value("N#CC(C(=O)C(=O)Nc1ccccc1)c1ccccc1 (stereo unspecified)")
"> 100 µM (inactive)"
>>> meas_value("CCOC(=O)C(C)(C)Oc1ccc2c(-c3ccc(Cl)cc3)c(-c3ccc(Cl)cc3)c(=O)oc2c1")
"89.5 µM (inactive)"
>>> meas_value("O=C(Nc1ccn(C2CCC(COC(c3ccccc3)(c3ccccc3)c3ccccc3)O2)c(=O)n1)c1ccccc1 (stereo unspecified)")
"3.33 µM (inactive)"
>>> meas_value("COC(=O)[C@H]1ON2O[C@@H](O[C@H]3CCCC[C@@H]3C(C)(C)c3ccccc3)C[C@@H]3CC[C@H]1[C@@]32C")
"> 100 µM (inactive)"
>>> meas_value("CC(C)=CC1C(C(=O)Oc2ccccc2C(C)C)C1(C)C (stereo unspecified)")
"20.8 µM (inactive)"
>>> meas_value("CCC(=O)O[C@H]1CC[C@H]2[C@@H]3CCC4=CC(=O)C=C[C@]4(O)[C@H]3CC[C@]12C")
"21.9 µM (inactive)"
>>> meas_value("Cc1ccc(NC(=O)c2ccc(OP(=O)(O)Nc3ccc(C)cc3)cc2)cc1")
"> 100 µM (inactive)"

###

test system: Hs-578T; assay: NCI tumour cell line growth inhibition, 48 h
Active and inactive are the calls of the source. Cut-off read from the data, not from the text of the source: active = GI50 up to about 1.1 µM and inactive = higher.
OBSERVABLE: GI50

>>> meas_value("CCCCCCCCCCCCCCCCCC(=O)Nc1ccn(C2CCC(COP(=O)(O)O)O2)c(=O)n1 (stereo not drawn)")
"> 100 µM (inactive)"
>>> meas_value("Cc1cc2c(cc1C)C(=O)C1(C2)Cc2c(ccc(C)c2C)C1=O (stereo not drawn)")
"42.5 µM (inactive)"
>>> meas_value("Brc1cc2nn(-c3ccccc3)nc2c2nonc12")
"> 100 µM (inactive)"

###

test system: 786-0; experiment: NCI tumour cell line growth inhibition, 48 h
Active and inactive are the calls of the source. Cut-off read from the data, not from the text of the source: active = GI50 up to about 1.1 µM and inactive = higher.
In this section, each of the compounds is paired with its reported GI50.
OBSERVABLE: GI50

>>> meas_value("CCOC(=O)C(C)(C)Oc1ccc2c(-c3ccc(Cl)cc3)c(-c3ccc(Cl)cc3)c(=O)oc2c1")
"> 100 µM (inactive)"
>>> meas_value("COc1cc2c(cc1OC)C(=O)N(c1ccc(OCCN3CCCC3)cc1)C2=O")
"> 100 µM (inactive)"
>>> meas_value("NNC(=O)C(=O)N/N=C1/CCCC1C(=O)CCC(=O)Nc1ccc(Cl)cc1 (centres undefined)")
"> 100 µM (inactive)"
>>> meas_value("CC(C)C[C@H](NC(=O)[C@@H](Cc1cccc2ccccc12)NC(=O)N1CCOCC1)B(O)O")
"4.79 µM (inactive)"
